subject-of-test: HLA-B3501 (Homo sapiens, UniProt P01889, A329T/A93T/A95T/C349S/D201E/D98Y/E176V/E187L/E204Q/E69T/I218V/K202T/L119I/Q94N/R155S/R180L/S121R/S35A/S48A/T118I/V127L/V306I/V36M/Y140S/Y91F)
assay-explanation: Competitive peptide binding assay, CIR-B3501
test-conditions: HMy2.CIR-B3501 cells, reference Cy5-[…], class from inhibition at 5 and 15 μM, flow cytometry MFI; read-out: Binding affinity with HLA-B3501
pIC50: −log10 of the molar value. Peptide text beside a SMILES is read from it.
Kindly state pIC50 for each of the entries shown.

Problem: Reported pIC50, molecule CC[C@H](C)[C@H](NC(=O)[C@@H]1CCCN1C(=O)[C@@H]1CCCN1C(=O)[C@@H](NC(=O)[C@H](CCCCN)NC(=O)[C@H](Cc1ccc(O)cc1)NC(=O)[C@@H](NC(=O)[C@H](CCC(N)=O)NC(=O)[C@@H](N)CCCCN)[C@@H](C)CC)[C@@H](C)O)C(=O)O [Epitope Y82] (H-KQIYKTPPI-OH; N-terminus and C-terminus assumed) : ____
Result: > 5.30

Problem: CC(C)[C@H](NC(=O)CNC(=O)[C@H](Cc1c[nH]cn1)NC(=O)[C@@H]1CCCN1C(=O)[C@H](C)NC(=O)[C@H](CO)NC(=O)[C@@H](N)CCC(N)=O)C(=O)N[C@H](C(=O)N[C@@H](Cc1ccccc1)C(=O)O)C(C)C [Epitope Y146] (H-QSAPHGVVF-OH; N-terminus and C-terminus assumed) , same question.
Result: < 4.82

Problem: CC(C)C[C@H](NC(=O)[C@H](CCC(=O)O)NC(=O)[C@H](CCCCN)NC(=O)[C@H](Cc1ccccc1)NC(=O)[C@H](CO)NC(=O)[C@@H](N)CC(C)C)C(=O)N[C@@H](CC(C)C)C(=O)N[C@H](C(=O)N[C@@H](Cc1ccc(O)cc1)C(=O)O)C(C)C [Epitope Y142] (H-LSFKELLVY-OH; N-terminus and C-terminus assumed) ?
Result: < 4.82

Problem: One more molecule: CC(C)C[C@H](NC(=O)[C@@H](NC(=O)[C@@H](NC(=O)CNC(=O)[C@H](CCC(N)=O)NC(=O)[C@@H]1CCCN1C(=O)[C@H](CC(C)C)NC(=O)[C@H](CCC(N)=O)NC(=O)[C@@H](N)CC(C)C)[C@@H](C)O)[C@@H](C)O)C(=O)O [Epitope Y61] (H-LQLPQGTTL-OH; N-terminus and C-terminus assumed)
Result: > 5.30

Problem: Now try CC(C)C[C@H](NC(=O)[C@H](CC(=O)O)NC(=O)[C@@H](NC(=O)[C@H](CC(=O)O)NC(=O)[C@@H](NC(=O)[C@H](Cc1c[nH]cn1)NC(=O)[C@H](CO)NC(=O)[C@H](CCC(=O)O)NC(=O)[C@H](C)N)C(C)C)[C@@H](C)O)C(=O)O [Epitope Y198] (H-AESHVDTDL-OH; N-terminus and C-terminus assumed) .
Result: < 4.82

Problem: Please answer likewise for CC[C@H](C)[C@H](NC(=O)[C@@H](NC(=O)CNC(=O)[C@H](CC(N)=O)NC(=O)[C@H](CO)NC(=O)[C@H](CC(=O)O)NC(=O)[C@H](C)N)[C@@H](C)O)C(=O)N[C@H](C(=O)N[C@H](C(=O)O)C(C)C)[C@@H](C)O [Epitope Y216] (H-ADSNGTITV-OH; N-terminus and C-terminus assumed)
Result: < 4.82

Problem: Next up: CC(C)C[C@H](NC(=O)[C@@H](N)CCC(N)=O)C(=O)N[C@H](C(=O)N1CCC[C@H]1C(=O)N[C@H](C(=O)N[C@@H](Cc1c[nH]c2ccccc12)C(=O)N[C@@H](CCCNC(=N)N)C(=O)N[C@H](C(=O)N[C@@H](Cc1ccc(O)cc1)C(=O)O)C(C)C)[C@@H](C)O)[C@@H](C)O [Epitope Y175] (H-QLTPTWRVY-OH; N-terminus and C-terminus assumed)
Result: < 4.82

Problem: Query C[C@H](NC(=O)[C@H](Cc1ccc(O)cc1)NC(=O)[C@H](C)NC(=O)[C@@H](N)Cc1ccccc1)C(=O)N[C@@H](CC(N)=O)C(=O)N[C@@H](CCCNC(=N)N)C(=O)N[C@@H](CC(N)=O)C(=O)N[C@@H](CCCNC(=N)N)C(=O)N[C@@H](Cc1ccccc1)C(=O)O [Epitope Y49] (H-FAYANRNRF-OH; N-terminus and C-terminus assumed) next
Result: > 5.30

Problem: Lookup CC[C@H](C)[C@H](NC(=O)[C@H](C)NC(=O)CNC(=O)[C@@H](NC(=O)[C@H](Cc1ccc(O)cc1)NC(=O)[C@@H](NC(=O)[C@@H](N)CC(C)C)[C@@H](C)O)[C@@H](C)O)C(=O)N[C@@H](CCCCN)C(=O)N[C@@H](CC(C)C)C(=O)O [Epitope Y243] (H-LTYTGAIKL-OH; N-terminus and C-terminus assumed)
Result: < 4.82

Problem: Note, next up: CC[C@H](C)[C@H](NC(=O)[C@H](CC(C)C)NC(=O)[C@H](CCC(N)=O)NC(=O)[C@H](CCC(N)=O)NC(=O)[C@@H](NC(=O)[C@@H](NC(=O)[C@H](Cc1ccc(O)cc1)NC(=O)[C@@H](NC(=O)[C@H](CCC(N)=O)NC(=O)[C@@H](N)CC(C)C)[C@@H](C)O)C(C)C)[C@@H](C)O)C(=O)O [Epitope Y118] (H-LQTYVTQQLI-OH; N-terminus and C-terminus assumed)
Result: < 4.82

Problem: Quick one: CC[C@H](C)[C@H](NC(=O)[C@H](CC(N)=O)NC(=O)[C@H](CCCCN)NC(=O)[C@H](Cc1ccccc1)NC(=O)[C@@H](NC(=O)[C@@H](N)Cc1ccccc1)C(C)C)C(=O)N[C@@H](CC(=O)O)C(=O)NCC(=O)N[C@@H](Cc1ccc(O)cc1)C(=O)O [Epitope Y172] (H-FVFKNIDGY-OH; N-terminus and C-terminus assumed)
Result: 4.82 to 5.30
